# Assay comment: yeast display, Sf9 membrane polyspecificity reagent, FACS + sequencing; frameworks hold sequencing errors
Parameter measured: polyreactivity (PSR sort gate)

Below, 6 sequences whose answers are already recorded.
{"Sequence chain": "QVQLVESGGGLVQAGGSLRLSCAASGRTFSKYAMGWYRQAPGKERELVAAITRSGSSTYYADSVKGRFTISRDNAKNTVYLQMNSLKPEDTAVYYCAADRYVRSSGSASDYGYWGQGTQVTVSS", "Parameter measured": "polyreactivity (PSR sort gate)", "Result value": "low polyreactivity"}
{"Sequence chain": "QVQLGESGGGLVQAGGSLRLSCAASGRTSTGYAMGWYRQAPGKERELVAGIDKIGGRTYYADSVKGRFTISRDNAKNTVYLQMNSLKPEDTAVYYCAKTRYFSVGTHWDYYYWGQGTQVTVSS", "Parameter measured": "polyreactivity (PSR sort gate)", "Result value": "high polyreactivity"}
{"Sequence chain": "QVQLVESGAGLVQAGGSRRLSCAASVLIFAWYAMGWSRQAPGNERELVAAITGTGSSTYYADSVKGRFTISRDNAKNTVYLLLNSLKPDDTAVYYCAPTSLPRYYYWGQGTQVTVSS", "Parameter measured": "polyreactivity (PSR sort gate)", "Result value": "low polyreactivity"}
{"Sequence chain": "QVQLVESGGGLVQAGGSLRLSCAASGFTFFENAMGWYRQAPGKERELVAAIRKSGDRTYYADSVKGRFTISRDNAKNTVYLQMNSLKPEDTAVYYCAAPLSLRSSFGSWGQGTQVTVSS", "Parameter measured": "polyreactivity (PSR sort gate)", "Result value": "high polyreactivity"}
{"Sequence chain": "QVQLVESGGGLVQAGGSLRLSCAASGRTFLPNDMGWYRQAPGKERELVAAITDSGGDTYYADSVKGRFTISRDNAKNTVYLQMNSLKPEDTAVYYCAADYYYYGSYYPVEYWGQGTQVTVSS", "Parameter measured": "polyreactivity (PSR sort gate)", "Result value": "high polyreactivity"}
{"Sequence chain": "QVQLVESGGGLVQAGGSLRLSCAASGLTFYLYAMGWYRQAPGKERELVAAISRSGGSTYYADSVKGRFTISRDNAKNTVYLQMNSLKPEDTAVYYCAAVTYYPEIRKYYYWGQGTQVTVSS", "Parameter measured": "polyreactivity (PSR sort gate)", "Result value": "high polyreactivity"}

Incoming: Quick one: polyreactivity (PSR sort gate) of QDLHVESGGGVVQAGGSLRVSCAASGRTFISYAMGWSRQAPGKERELVATITRDGRTNYADSVKGRFTFSRDNAKNTVYLQMNSLNAEDTAVYYCNADSRYRYDYWGQGSQVTVSS ?
Outgoing: low polyreactivity

Incoming: Quick one: polyreactivity (PSR sort gate) of QVQLVESGGCLVQAGGSLRLSCAASGFTLTAYAMGWYRQAPGKEREFVAAISTSGTRTYYADSVKGRFTISRDNAKITVYLQMYSLKPDDTAVYYCAARYSGYQYWKFNYWGQGTQVTVSS ?
Outgoing: high polyreactivity

Incoming: Quick one: polyreactivity (PSR sort gate) of QVQLVESGGGLVQAGGSLRLSCAASGRIFIFTYALGWYRQAPGKERELVAAITSSGGSTYYADSVKGRFTISRDNAKNTVYLQMNSLKPEDTAVYYCIAYSYYIVHFIRYEYWGQGTQVTVSS ?
Outgoing: high polyreactivity

Incoming: Quick one: polyreactivity (PSR sort gate) of QVQLVESGGGLVQAGGSLRLSCAASGNIFGYYVMGWYRQAPGKERELVAAITWSAGTTNYADSVKGRFTISRDNAKNTVYLQMNSLKPEDTAVYYCAVTWWYQDYDLTWYLYDYWGQGTQVTVSS ?
Outgoing: low polyreactivity

Incoming: Quick one: polyreactivity (PSR sort gate) of QVHLVESGGGLVQAGGSLRLSCAAAGRTFSSYAMAWYRQAPWQERELVAAITSGGTTYYADSVKGRFTISRDNAKNTVDLQMNSLKAEDPAFYYCARRSYLYDSYLTKKKYYDYCGQGTQVTVSS ?
Outgoing: low polyreactivity
